B1: PDS5B (parent)
chain: IYKKYALQSAAGKDAAKQIAWIKD

Variants of: B1
Test: protein stability index of a GFP-peptide fusion (GPS, HEK-293T) (PSI 1-6); higher = more stable;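 also: lentivirally expressed fusions sorted by FACS into six bins by GFP to DsRed ratio, PSI derived from sequencing read proportions per bin multiplied by bin number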
Details: c terminus: a fixed tail appended

{"columns": ["VARIANT DESCRIPTOR", "protein stability index"],
 "data": [
  ["L7Y", 2.04],
  ["A6P", 3.02],
  ["Q8G", 2.01],
  ["G12F", 1.99],
  ["A11D", 3.03],
  ["K4M", 1.95],
  ["W21E", 2.91],
  ["K3W", 2.95],
  ["W21D", 3.05],
  ["K13A", 2.93],
  ["K17C", 2.04]
]}
